B1: TOR1AIP2 (parent)
chain: HHVADAYTSSQKVSPIQIDGAGRT

- Variants of: B1
- EXPERIMENT_DESCRIPTION: protein stability index of a GFP-peptide fusion (GPS, HEK-293T) (PSI 1-6); higher = more stable;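 also: lentivirally expressed fusions sorted by FACS into six bins by GFP to DsRed ratio, PSI derived from sequencing read proportions per bin multiplied by bin number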
- APPLIED_CONDITIONS: c terminus: a fixed tail appended
MEASURED_METRIC: protein stability index

Problem: Query protein stability index for T24N
Solution: 3.97

Problem: Query protein stability index for S14N
Solution: 4.01

Problem: Query protein stability index for A4R
Solution: 3.95

Problem: Query protein stability index for V13D
Solution: 4

Problem: Query protein stability index for A4L
Solution: 3.99

Problem: Query protein stability index for H1T
Solution: 3.94

Problem: Query protein stability index for A6K
Solution: 4.03

Problem: Query protein stability index for G20I
Solution: 3.04
